- experimental_system: GABA A receptor alpha-5/beta-3/gamma-2 (Rattus norvegicus, UniProt P18508+P19969+P63079)
- Sequence (P18508 whole entry): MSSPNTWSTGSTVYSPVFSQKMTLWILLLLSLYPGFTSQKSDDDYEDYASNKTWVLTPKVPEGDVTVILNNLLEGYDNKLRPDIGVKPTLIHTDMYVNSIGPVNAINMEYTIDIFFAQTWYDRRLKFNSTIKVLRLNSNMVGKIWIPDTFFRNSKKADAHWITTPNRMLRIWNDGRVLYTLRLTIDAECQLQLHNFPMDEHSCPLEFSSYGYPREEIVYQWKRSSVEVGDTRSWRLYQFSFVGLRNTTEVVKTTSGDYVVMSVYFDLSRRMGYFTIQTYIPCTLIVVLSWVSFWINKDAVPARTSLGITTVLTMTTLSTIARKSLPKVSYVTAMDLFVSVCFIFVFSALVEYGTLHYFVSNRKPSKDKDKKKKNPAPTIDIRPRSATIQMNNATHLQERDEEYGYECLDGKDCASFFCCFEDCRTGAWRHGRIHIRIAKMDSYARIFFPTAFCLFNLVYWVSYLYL
- Sequence (P19969 whole entry): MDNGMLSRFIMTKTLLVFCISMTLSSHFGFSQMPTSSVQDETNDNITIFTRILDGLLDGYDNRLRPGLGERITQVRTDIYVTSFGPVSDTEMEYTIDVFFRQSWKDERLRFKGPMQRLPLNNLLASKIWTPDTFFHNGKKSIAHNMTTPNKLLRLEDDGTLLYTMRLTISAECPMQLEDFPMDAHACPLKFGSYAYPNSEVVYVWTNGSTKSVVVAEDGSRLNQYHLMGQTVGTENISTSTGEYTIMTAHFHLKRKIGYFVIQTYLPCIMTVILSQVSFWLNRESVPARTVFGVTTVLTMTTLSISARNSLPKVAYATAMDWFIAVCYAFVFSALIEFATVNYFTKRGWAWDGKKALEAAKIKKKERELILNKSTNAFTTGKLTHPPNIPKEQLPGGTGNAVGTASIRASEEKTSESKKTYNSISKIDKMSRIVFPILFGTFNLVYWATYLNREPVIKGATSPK
- Sequence (P63079 whole entry): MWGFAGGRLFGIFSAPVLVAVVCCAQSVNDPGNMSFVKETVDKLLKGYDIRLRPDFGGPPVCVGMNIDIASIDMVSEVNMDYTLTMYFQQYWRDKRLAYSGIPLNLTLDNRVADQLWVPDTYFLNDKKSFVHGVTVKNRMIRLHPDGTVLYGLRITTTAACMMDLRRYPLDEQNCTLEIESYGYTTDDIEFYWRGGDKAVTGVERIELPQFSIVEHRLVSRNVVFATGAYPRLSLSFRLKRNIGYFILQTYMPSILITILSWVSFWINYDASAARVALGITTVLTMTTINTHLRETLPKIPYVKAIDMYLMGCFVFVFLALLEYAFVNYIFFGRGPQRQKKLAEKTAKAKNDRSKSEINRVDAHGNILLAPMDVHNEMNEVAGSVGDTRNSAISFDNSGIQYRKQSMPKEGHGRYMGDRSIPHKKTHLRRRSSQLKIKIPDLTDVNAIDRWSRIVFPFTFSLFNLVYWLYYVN
- assay: Inhibition of [3H]flumazenil binding to rat alpha-5-beta-3-gamma-2 GABA-A receptor subunits expressed in HEK293 cells
Catalogue of pKi values
Please keep in mind that pKi is minus log10 of the molar concentration; only the number is needed.

Past entries and their recorded results:
smiles_representation: C[C@@H](NC(=O)C(=O)c1c[nH]c2ccccc12)c1ccccc1
experimental_system: GABA A receptor alpha-5/beta-3/gamma-2 (Rattus norvegicus, UniProt P18508+P19969+P63079)
pKi: 5.26
--
smiles_representation: COc1ccc(CNC(=O)C(=O)c2c[nH]c3ccc([N+](=O)[O-])cc23)cc1
experimental_system: GABA A receptor alpha-5/beta-3/gamma-2 (Rattus norvegicus, UniProt P18508+P19969+P63079)
pKi: 6.90
--
smiles_representation: O=C(N[C@@H]1CCc2ccccc21)C(=O)c1c[nH]c2ccccc12
experimental_system: GABA A receptor alpha-5/beta-3/gamma-2 (Rattus norvegicus, UniProt P18508+P19969+P63079)
pKi: 5.67

Q: Report pKi for O=C(NNc1ccc([N+](=O)[O-])cc1)C(=O)c1c[nH]c2ccccc12 tested on GABA A receptor alpha-5/beta-3/gamma-2 (Rattus norvegicus, UniProt P18508+P19969+P63079).
Result: 7.37

---

- experimental_system: GABA A receptor alpha-5/beta-3/gamma-2 (Rattus norvegicus, UniProt P18508+P19969+P63079)
- assay: Inhibition of [3H]flumazenil binding to rat alpha-5-beta-3-gamma-2 GABA-A receptor subunits expressed in HEK293 cells
measure: pKi
Note on pKi: it is the negative log10 of concentration, concentration in mol/L.

Examples with answers:
smiles_representation: O=C(NCc1ccc([N+](=O)[O-])cc1)C(=O)c1c[nH]c2ccccc12
pKi: 7.24
--
smiles_representation: O=C(N[C@@H]1CCc2ccccc21)C(=O)c1c[nH]c2ccc([N+](=O)[O-])cc12
pKi: 7.02

Q: Entry C[C@@H](NC(=O)C(=O)c1c[nH]c2ccc([N+](=O)[O-])cc12)c1ccccc1 : reported pKi = ?
Result: 6.62
